Cited source: PubChem BioAssay (NCATS)

- System: JCK
- Experiment: qHTS profiling for inhibitors of Plasmodium falciparum proliferation (AID 504749); further: nearly all actives have a fitted effect of over 60% in size
- Condition context: P. falciparum in erythrocytes, SYBR Green DNA, 72 h; series mostly up to 28.7 µM
Inconclusive results are not listed. Active and inactive are the calls of the source. The call rests on the fitted dose curve; in most records, active means well fitted inhibition curve with a large enough effect; inconclusive means small, poorly fitted or top-dose-only effect; inactive means flat fitted curve, though single readings scatter.
In this exercise, the only acceptable responses are active, inactive

CN1CCC[C@@H]1c1cccnc1    inactive
CC(=O)N(O)CCCCCNC(=O)CCC(=O)N(O)CCCCCNC(=O)CCC(=O)N(O)CCCCCN    active
CCCN1CCCC[C@H]1C(=O)Nc1c(C)cccc1C    inactive
CCCCCC=CCC=CCCCCCCCC(=O)OCC    inactive

Which outcome did this test record for the compound `CCCCOc1ccc(C(=O)CCN2CCCCC2)cc1` ? inactive

Which outcome did this test record for the compound `COc1c2occc2c(OC)c2c(=O)cc(C)oc12` ? inactive

Which outcome did this test record for the compound `C=CCc1ccc(O)c(OC)c1` ? inactive

Which outcome did this test record for the compound `CCN1CCN(c2cc3c(cc2F)c(=O)c(C(=O)O)cn3C2CC2)CC1` ? inactive

Which outcome did this test record for the compound `Clc1ccc2c(c1)CCc1cccnc1C2=C1CCNCC1` ? inactive

Which outcome did this test record for the compound C[C@H]1[C@H](NC(=O)/C(=N/OC(C)(C)C(=O)O)c2csc(N)n2)C(=O)N1S(=O)(=O)O (stereo in doubt) ? inactive

Which outcome did this test record for the compound `Nc1ccc(C(=O)O)cc1` ? inactive

Which outcome did this test record for the compound `O=C1c2ccccc2C(=O)C1c1ccccc1` ? inactive

Which outcome did this test record for the compound `Oc1c(I)cc(Cl)c2cccnc12` ? inactive
